Data provenance: patent US10316021B2

- experimental target: human mu opioid receptor (hMOR) (Homo sapiens, UniProt P35372)
- Construct: expressed in transfected cells; host or cells: CHO cells
- Sequence (P35372 whole entry): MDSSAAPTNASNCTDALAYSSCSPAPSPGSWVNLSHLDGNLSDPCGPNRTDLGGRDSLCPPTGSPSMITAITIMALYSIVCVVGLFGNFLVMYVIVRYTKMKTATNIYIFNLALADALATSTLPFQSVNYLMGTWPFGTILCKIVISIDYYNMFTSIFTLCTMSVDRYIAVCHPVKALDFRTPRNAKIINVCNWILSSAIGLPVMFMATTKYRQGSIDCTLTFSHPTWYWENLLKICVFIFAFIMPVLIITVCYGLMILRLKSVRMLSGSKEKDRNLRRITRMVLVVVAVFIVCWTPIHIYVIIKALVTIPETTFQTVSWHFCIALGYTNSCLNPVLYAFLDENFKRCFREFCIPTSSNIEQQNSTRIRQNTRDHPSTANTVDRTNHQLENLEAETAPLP
- procedure summary: Mu radioligand binding assay ([3H]diprenorphine, CHO cell membranes)
- particulars: Table 20; radioligand binding; read-out: hMOR binding assay Ki
Property: log10 Ki; scope: individual molecules
Kindly note that the scale is log10 and the underlying Ki is in nM.

> print(dat)
                                   molecule  assay.metric  value.observed
1  Cc1nsc(C2CCCN2Cc2ccc(Oc3ccc(C(N)=O)cc3)cc2)n1 (single isomer, unassigned) [Example 41]      log10 Ki            3.44
2  Cc1nn(C)cc1[C@@H]1CCCN1Cc1ccc(Oc2ccc(C(N)=O)cc2)cc1 [Example 11]      log10 Ki            1.71
3  Cc1cc(C2CCCN2Cc2ccc(Oc3ccc(C(N)=O)cc3F)cc2)no1 (centres unmarked) [Example 40]      log10 Ki            2.48
4  COc1nn(C)cc1[C@@H]1CCCN1Cc1ccc(Oc2ccc(C(N)=O)cc2)cc1 (single isomer, unassigned) [Example 12]      log10 Ki            1.66

Continue with the next molecule.
Dear colleague, I am looking for the recorded log10 Ki of the following molecule: Cc1nc([C@@H]2CCCN2Cc2ccc(Oc3ccc(C(N)=O)cc3)cc2)ns1 [Example 10]
2.34

* * *

- experimental target: human kappa opioid receptor (hKOR) (Homo sapiens)
- Construct: expressed in transfected cells; host or cells: CHO cells
- procedure summary: Kappa radioligand binding assay ([3H]diprenorphine, CHO cell membranes)
- particulars: Table 19; geometric mean of 2-6 determinations unless otherwise indicated (Example 3: >=7); read-out: hKOR binding assay Ki
Property: pKi; scope: individual compounds
Hey, just a heads up that pKi is the negative log base 10 of the concentration in molar.

Dear colleague, I am looking for the recorded pKi of the following compound: Cc1c(C2CCCN2Cc2ccc(Oc3ccc(C(N)=O)cc3F)cc2)cnn1C (single isomer, unassigned)
8.54

Dear colleague, I am looking for the recorded pKi of the following compound: COc1nn(C)cc1C1CCCN1Cc1ccc(Oc2ccc(C(N)=O)cc2F)cc1 (single isomer, unassigned; (+)) [Example 9]
7.65

Dear colleague, I am looking for the recorded pKi of the following compound: COc1nn(C)cc1C1COCCN1Cc1ccc(Oc2ccc(C(N)=O)cc2F)cc1 (single isomer, unassigned)
8.23

* * *

Property: Ki; scope: individual compounds
- experimental target: human mu opioid receptor (hMOR) (Homo sapiens)
- Construct: expressed in transfected cells; host or cells: CHO cells
- procedure summary: Mu radioligand binding assay ([3H]diprenorphine, CHO cell membranes)
- particulars: Table 19; geometric mean of 2-6 determinations unless otherwise indicated (Example 3: >=7); read-out: hMOR binding assay Ki
Unit µM implied. Number only.

Below: 3 compounds and their reported Ki.
> print(dat)
                                   compound                       experimental.target  value.observed
1  Cc1c(C2CCCN2Cc2ccc(Oc3ccc(C(N)=O)cc3F)cc2)cnn1C (single isomer, unassigned) [Example 35]  human mu opioid receptor (hMOR) (Homo sapiens)          0.0184
2  Cc1nn(C)cc1C1CCCN1Cc1ccc(Oc2ccc(C(N)=O)cc2F)cc1 (single isomer, unassigned) [Example 5]  human mu opioid receptor (hMOR) (Homo sapiens)          0.0736
3  COc1n[nH]cc1C1CCCN1Cc1ccc(Oc2ccc(C(N)=O)cc2)cc1 (single isomer, unassigned; (-)) [Example 14]  human mu opioid receptor (hMOR) (Homo sapiens)          0.0313

Continue with the next compound.
Dear colleague, I am looking for the recorded Ki of the following compound: Cc1cc([C@@H]2CCCN2Cc2ccc(Oc3ccc(C(N)=O)c(O)c3)cc2)n(C)n1 [Example 27]
0.121

* * *

- experimental target: human kappa opioid receptor (hKOR) (Homo sapiens, UniProt P41145)
- Construct: expressed in transfected cells; host or cells: CHO cells
- Sequence (P41145 whole entry): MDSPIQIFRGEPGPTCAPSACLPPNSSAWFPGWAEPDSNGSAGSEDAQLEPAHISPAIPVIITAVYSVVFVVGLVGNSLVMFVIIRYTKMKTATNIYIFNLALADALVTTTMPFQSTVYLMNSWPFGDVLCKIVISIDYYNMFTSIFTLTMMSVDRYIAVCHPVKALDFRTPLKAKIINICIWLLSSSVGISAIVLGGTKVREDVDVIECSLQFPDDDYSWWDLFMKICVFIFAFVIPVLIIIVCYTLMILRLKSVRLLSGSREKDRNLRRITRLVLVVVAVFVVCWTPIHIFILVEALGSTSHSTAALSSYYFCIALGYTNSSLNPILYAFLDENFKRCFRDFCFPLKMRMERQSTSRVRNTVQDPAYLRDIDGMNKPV
- procedure summary: Kappa radioligand binding assay ([3H]diprenorphine, CHO cell membranes)
- particulars: Table 19; geometric mean of 2-6 determinations unless otherwise indicated (Example 3: >=7); read-out: hKOR binding assay Ki
assay metric: Ki (nM)
Unit nM implied. Number only.

Below: 5 molecules and their reported Ki.
> print(dat)
                                   molecule                       experimental.target  value.observed
1  Cc1nn(C)nc1C1CCCN1Cc1ccc(Oc2ccc(C(N)=O)cc2)cc1 (single isomer, unassigned)  human kappa opioid receptor (hKOR) (Homo sapiens, UniProt P41145)           0.688
2  Cc1cc([C@@H]2CCCN2Cc2ccc(Oc3ccc(C(N)=O)cc3F)cc2)n(C)n1  human kappa opioid receptor (hKOR) (Homo sapiens, UniProt P41145)             1.7
3  Cc1nsc(C2CCCN2Cc2ccc(Oc3ccc(C(N)=O)cc3)cc2)n1 (single isomer, unassigned)  human kappa opioid receptor (hKOR) (Homo sapiens, UniProt P41145)            85.8
4  Cc1nn(C)c(C)c1C1CCCN1Cc1ccc(Oc2ccc(C(N)=O)cc2F)cc1 (racemic)  human kappa opioid receptor (hKOR) (Homo sapiens, UniProt P41145)            13.3
5  Cc1nn(C)cc1C1CC(F)CN1Cc1ccc(Oc2ccc(C(N)=O)cc2)cc1 (single isomer, unassigned) [Example 25]  human kappa opioid receptor (hKOR) (Homo sapiens, UniProt P41145)             2.7

Dear colleague, I am looking for the recorded Ki of the following molecule: COc1n[nH]cc1C1CCCN1Cc1ccc(Oc2ccc(C(N)=O)cc2)cc1 (single isomer, unassigned; (+)) [Example 15]
23.2

Dear colleague, I am looking for the recorded Ki of the following molecule: COc1nn(C)cc1C1COCCN1Cc1ccc(Oc2ccc(C(N)=O)cc2)c(F)c1 (single isomer, unassigned)
4.52

Dear colleague, I am looking for the recorded Ki of the following molecule: COc1n[nH]cc1C1CCCN1Cc1ccc(Oc2ccc(C(N)=O)cc2)cc1 (single isomer, unassigned; (-)) [Example 14]
6.08

Dear colleague, I am looking for the recorded Ki of the following molecule: COc1nn(C)cc1C1CCCN1Cc1ccc(Oc2ccc(C(N)=O)cc2F)cc1 (racemic) [Example 7]
5.71

Dear colleague, I am looking for the recorded Ki of the following molecule: COc1nn(C)cc1[C@@H]1CCCN1Cc1ccc(Oc2ccc(C(N)=O)cc2)cc1 (single isomer, unassigned)
1.47

Dear colleague, I am looking for the recorded Ki of the following molecule: Cc1nn(C)cc1C1CCCN1Cc1ccc(Oc2ccc(C(N)=O)cc2)c(F)c1 (single isomer, unassigned; (-)) [Example 3]
0.461

Dear colleague, I am looking for the recorded Ki of the following molecule: Cc1nn(C)cc1C1CCCN1Cc1ccc(Oc2ccc(C(N)=O)c(O)c2)cc1 (racemic) [Example 16]
9.67

Dear colleague, I am looking for the recorded Ki of the following molecule: Cc1nn(C)cc1C1CCCN1Cc1ccc(Oc2ccc(C(N)=O)cc2F)cc1 (single isomer, unassigned)
16.8

Dear colleague, I am looking for the recorded Ki of the following molecule: Cc1nn(C)cc1C1CCCN1Cc1ccc(Oc2ccc(C(N)=O)cc2)c(F)c1 (racemic) [Example 1]
0.871

Dear colleague, I am looking for the recorded Ki of the following molecule: COc1cc(C2CCCN2Cc2ccc(Oc3ccc(C(N)=O)cc3)cc2)n(C)n1 (single isomer, unassigned)
0.657

Dear colleague, I am looking for the recorded Ki of the following molecule: COc1nn(C)cc1C1CC(C)CN1Cc1ccc(Oc2ccc(C(N)=O)cc2F)cc1 (single isomer, unassigned) [Example 28]
4.88

Dear colleague, I am looking for the recorded Ki of the following molecule: COc1nn(C)cc1C1CCCN1Cc1ccc(Oc2ccc(C(N)=O)c(O)c2)cc1 (single isomer, unassigned)
1.69

Dear colleague, I am looking for the recorded Ki of the following molecule: COc1nn(C)cc1C1CC(C)CN1Cc1ccc(Oc2ccc(C(N)=O)cc2F)cc1 (single isomer, unassigned) [Example 30]
0.417
